Assay: p53 small molecule agonists, cell-based qHTS assay with rat liver microsomes (AID 1963578)
Details: HCT-116 p53RE-bla, beta-lactamase ratio, 16 h; series mostly up to 66 µM
Records with an inconclusive call do not appear. The source made the active and inactive calls. The call rests on the fitted dose curve.
measured_metric: activation

{"columns": ["compound", "value_reported"],
 "data": [
  ["CC(=O)NCc1c(I)c(NC(C)=O)c(I)c(C(=O)O)c1I", "inactive"],
  ["CC/C=C\\CCO", "inactive"],
  ["C=CCCCCCCCCC(=O)OCCCC", "inactive"],
  ["Cc1cncc(C)c1", "inactive"],
  ["CC(C)(C)c1ccc(S)cc1", "inactive"],
  ["CC(=O)OCC1=C(C(=O)O)N2C(=O)[C@@H](NC(=O)Cc3cccs3)[C@H]2SC1", "inactive"],
  ["CCSC(=O)N(CC)CC", "inactive"],
  ["CC1=CCC(=O)O1", "inactive"],
  ["CC(C)[C@H]1CC[C@@H](C)CC1=O", "inactive"],
  ["O=P(OC(CCl)CCl)(OC(CCl)CCl)OC(CCl)CCl", "inactive"],
  ["Cc1ccc(N(C)C)cc1", "inactive"],
  ["CCN(CC)CCNC(=O)c1ccc(NC(C)=O)cc1", "inactive"],
  ["COC(=O)c1ccccc1C(=O)c1ccc(OCCN2CCCCC2)cc1", "inactive"],
  ["CCOC(=O)CC(C(C)=O)C(C)=O", "inactive"],
  ["OCCC(F)(F)C(F)(F)C(F)(F)C(F)(F)C(F)(F)C(F)(F)F", "inactive"],
  ["CCCCC(CC)COCCC#N (stereo not drawn)", "inactive"],
  ["CN(C)CCCNCCC#N", "inactive"],
  ["CCCCCC1CCC(=O)O1 (stereo not drawn)", "inactive"],
  ["Fc1ccccc1-c1ccccc1", "inactive"],
  ["C=CCS(=O)(=O)O", "inactive"],
  ["CSCCC=O", "inactive"],
  ["NC(=O)NS(=O)(=O)c1ccc(Cl)cc1", "inactive"],
  ["OCCN1CCNCC1", "inactive"]
]}
